# credit: PubChem BioAssay

method: E. coli acrAB mutant growth effects, primary screen, E. coli filamentation inducers, strain DRC39, OD650, 48 h (AID 1179);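 also: screen aims at cell division blockers that make cells filament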
conditions: E. coli DRC39 delta-acrAB growth, higher = more signal, called active from +8 up or from −8 down
Kindly return yes if reported z-score is no lower than -0.3; return no if it is lower.

{"compound": "[N-]=[N+]=NCc1ccccc1C[C@@]1(C(N)=O)N=C(c2ccc(OCCCO)cc2)O[C@@H]1c1ccccc1N=[N+]=[N-]", "answer-label": "no"}
{"compound": "CCOC(=O)C1=C[C@@H](C(C)(C)C)N(S(=O)(=O)c2ccc(C)cc2)[C@H]1c1ccc(OC)cc1", "answer-label": "yes"}
{"compound": "CC(C)C[C@@H]1NC(=O)[C@@H]2C[C@H](C(=O)NCCCCCCNC(=O)CS)[C@H](c3ccc(O)cc3)N2C1=O", "answer-label": "no"}
{"compound": "COC(=O)[C@@]1(Cc2ccc(F)cc2)[C@H]2c3cc(C(=O)N4CCCC4)n(CCSCCO)c3C[C@H]2CN1C(=O)c1ccccc1", "answer-label": "no"}
{"compound": "COc1ccc([Si](C)(C)[C@H]2[C@H](CC(=O)N(CCO)Cc3ccccc3)O[C@@]3(C(=O)N(c4ccccc4)c4ccccc43)[C@@H]2C)cc1", "answer-label": "yes"}
{"compound": "C[N+](C)(C)CCCC[C@@H]1NC(=O)[C@H]2C[C@@H](C(=O)O)[C@@H](c3ccc(O)cc3)N2C1=O", "answer-label": "yes"}
{"compound": "COCCOC(=O)N1C(=O)[C@@]2(c3cc(C#CCCO)ccc31)[C@H](c1ccc(O)cc1)N1[C@H](c3ccccc3)[C@H](c3ccccc3)OC(=O)[C@H]1[C@@H]2C(=O)NC[C@H](O)c1ccccc1", "answer-label": "yes"}
{"compound": "CC(C)C[C@@H]1NC(=O)[C@@H]2C[C@H](C(=O)NCCCCCNC(=O)CS)[C@H](c3ccc(O)cc3)N2C1=O", "answer-label": "no"}
{"compound": "COc1ccc([Si](C)(C)[C@H]2[C@H](CC(=O)N3CCC[C@H]3CO)O[C@@]3(C(=O)N(C)c4c(Br)cc(C)cc43)[C@@H]2C)cc1", "answer-label": "yes"}
{"compound": "COc1cc(Cc2cc3c(c(CCc4ccccc4)n2)[Si](C(C)C)(C(C)C)O[C@H]3c2ccccc2)cc(OC)c1OC", "answer-label": "no"}
{"compound": "CCOC(=O)C[C@H]1[C@H](OC(=O)Cc2ccc3c(c2)OCO3)[C@@H](NC(=O)CC(C)C)c2cc(OCCCO)ccc2N1C(=O)c1ccc2ccccc2n1", "answer-label": "yes"}
{"compound": "O=C1O[C@@H](c2ccccc2)[C@@H](c2ccccc2)N2[C@@H](c3ccccc3OCCO)[C@]3(C(=O)Nc4ccc(C#CC5(O)CCCCCC5)cc43)[C@@H](C(=O)N3CCCCCCC3)[C@H]12", "answer-label": "no"}
{"compound": "CC(C)c1ccc(NN2C(C(O)C3CCCCC3)C=CC3C(=O)N(c4ccccc4)C(=O)C32)cc1 (stereo not drawn)", "answer-label": "yes"}
